# credit: ChEMBL document CHEMBL3784927

- assay.summary: Terminal phase half life in uremic patient (15 patients) at 100 mg, iv by gas chromatography-mass spectrometry with multiple detection method
- details: human, in vivo
metric.name: half-life (min)
One number for each entry, in min.

Form: compound = "Cn1cnc([N+](=O)[O-])c1Sc1ncnc2nc[nH]c12" ; half-life = 49.5

* * *

- assay.summary: Total clearance in uremic patient (15 patients) at 100 mg, iv by gas chromatography-mass spectrometry with multiple detection method
- details: human, in vivo
metric.name: clearance

Form: compound = "Cn1cnc([N+](=O)[O-])c1Sc1ncnc2nc[nH]c12" ; clearance = 6920 mL/min

* * *

- assay.summary: Cmax in uremic patient (8 patients) at 100 mg, po by gas chromatography-mass spectrometry with multiple detection method
- details: human, in vivo
metric.name: Cmax (µM)
Answers are plain numbers, in µM.

Form: compound = "Cn1cnc([N+](=O)[O-])c1Sc1ncnc2nc[nH]c12" ; Cmax = 0.18

* * *

- assay.summary: AUC (0 to infinity) in uremic patient (7 patients) at 100 mg, po by gas chromatography-mass spectrometry with multiple detection method
- details: human, in vivo
metric.name: AUC(0-inf)
Output should be the measured figure followed by the unit it is expressed in.

Form: compound = Cn1cnc([N+](=O)[O-])c1Sc1ncnc2nc[nH]c12 [AZATHIOPRINE] ; AUC(0-inf) = 0.164 µM·h

* * *

- assay.summary: Tmax in uremic patient (15 patients) at 100 mg, iv by gas chromatography-mass spectrometry with multiple detection method
- details: human, in vivo
metric.name: Tmax (min)
Numbers only, in min.

Form: molecule = Cn1cnc([N+](=O)[O-])c1Sc1ncnc2nc[nH]c12 [AZATHIOPRINE] ; Tmax = 5

* * *

- assay.summary: Cmax in uremic patient (15 patients) at 100 mg, iv by gas chromatography-mass spectrometry with multiple detection method
- details: human, in vivo
metric.name: Cmax (µM)
Answers are plain numbers, in µM.

Form: molecule = "Cn1cnc([N+](=O)[O-])c1Sc1ncnc2nc[nH]c12" ; Cmax = 3.14

* * *

- assay.summary: Tmax in uremic patient (8 patients) at 100 mg, po by gas chromatography-mass spectrometry with multiple detection method
- details: human, in vivo
metric.name: Tmax
Output should be the measured figure followed by the unit it is expressed in.

Form: compound = Cn1cnc([N+](=O)[O-])c1Sc1ncnc2nc[nH]c12 [AZATHIOPRINE] ; Tmax = 15 min

* * *

- assay.summary: Volume of distribution in uremic patient (15 patients) at 100 mg, iv by gas chromatography-mass spectrometry with multiple detection method
- details: human, in vivo
metric.name: Vd
Output should be the measured figure followed by the unit it is expressed in.

Form: compound = Cn1cnc([N+](=O)[O-])c1Sc1ncnc2nc[nH]c12 [AZATHIOPRINE] ; Vd = 438 L

* * *

- assay.summary: Half life in human with good renal function
- details: in vivo
metric.name: half-life (min)
Numbers only, in min.

Form: molecule = "Cn1cnc([N+](=O)[O-])c1Sc1ncnc2nc[nH]c12" ; half-life = 10

* * *

- assay.summary: Primary phase half life in uremic patient (13 patients) at 100 mg, iv by gas chromatography-mass spectrometry with multiple detection method
- details: human, in vivo
metric.name: half-life (min)
Numbers only, in min.

Form: molecule = Cn1cnc([N+](=O)[O-])c1Sc1ncnc2nc[nH]c12 [AZATHIOPRINE] ; half-life = 6.05

* * *

- assay.summary: AUC (0 to infinity) in uremic patient (15 patients) at 100 mg, iv by gas chromatography-mass spectrometry with multiple detection method
- details: human, in vivo
metric.name: AUC(0-inf)
Output should be the measured figure followed by the unit it is expressed in.

Form: molecule = "Cn1cnc([N+](=O)[O-])c1Sc1ncnc2nc[nH]c12" ; AUC(0-inf) = 1.04 µM·h
